Would you kindly list protein stability index for each of these variants?
B1: PPFIA4 (parent)
chain: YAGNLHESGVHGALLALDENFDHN

variants of: B1; assay: protein stability index of a GFP-peptide fusion (GPS, HEK-293T) (PSI 1-6); higher = more stable; conditions: c terminus: a fixed tail appended;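 also: lentivirally expressed fusions sorted by FACS into six bins by GFP to DsRed ratio, PSI derived from sequencing read proportions per bin multiplied by bin number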

Completed entries (count: 8):
N4H; 2.73
F21G; 3.58
H11Y; 2.35
G9I; 1.49
A13S; 2.33
S8T; 3.26
F21M; 2.85
A2G; 3.49

Go through the items and report each one's protein stability index.
1. H6M
2. G9C
3. D18R
4. L15D
5. L15Y
6. S8E

Result string:
[2.09, 2.05, 2.55, 4.06, 2.31, 3.28]

Go through the items and report each one's protein stability index.
1. L5T
2. H23C

Result string:
[2.84, 2.13]

Go through the items and report each one's protein stability index.
1. Y1E
2. H6E
3. A13R
4. G3N
5. A16F

Result string:
5.05
3.7
2.41
2.98
3.06

Query string: Would you kindly share the measured protein stability index for `E7F` ?
Result string: 2.77
